Measured pIC50, listed per entry.
system_name: Butyrylcholinesterase (BChE) (Equus caballus)
Sequence (P81908 whole entry): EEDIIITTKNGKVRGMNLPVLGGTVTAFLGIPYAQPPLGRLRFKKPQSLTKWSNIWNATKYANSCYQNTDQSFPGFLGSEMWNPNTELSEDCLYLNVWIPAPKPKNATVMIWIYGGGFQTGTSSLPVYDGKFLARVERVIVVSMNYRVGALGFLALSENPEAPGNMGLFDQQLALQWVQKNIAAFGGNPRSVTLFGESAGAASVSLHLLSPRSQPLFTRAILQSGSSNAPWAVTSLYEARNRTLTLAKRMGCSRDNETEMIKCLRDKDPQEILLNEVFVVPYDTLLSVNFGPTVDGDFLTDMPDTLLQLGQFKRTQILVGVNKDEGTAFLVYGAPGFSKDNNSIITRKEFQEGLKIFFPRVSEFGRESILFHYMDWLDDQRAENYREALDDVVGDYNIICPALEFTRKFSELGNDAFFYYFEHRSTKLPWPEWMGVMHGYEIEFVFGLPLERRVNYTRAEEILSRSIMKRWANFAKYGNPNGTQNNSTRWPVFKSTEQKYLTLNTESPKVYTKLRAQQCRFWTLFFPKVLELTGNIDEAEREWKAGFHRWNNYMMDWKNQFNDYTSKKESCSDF
Scale note: pIC50 = -log10(concentration in M).

// solved cases for pIC50 follow
structure_smiles_string	system_name	endpoint_label	reported_result
Cc1ccc2nc(N3CCCCC3)c(C=NNC(=S)Nc3ccccc3)cc2c1	Butyrylcholinesterase (BChE) (Equus caballus)	pIC50	4.48
Cc1cccc2cc(C=NNC(=S)NCc3ccccc3)c(N3CCCCC3)nc12	Butyrylcholinesterase (BChE) (Equus caballus)	pIC50	4.39
Cc1cccc2cc(C=NNC(=S)Nc3ccccc3)c(N3CCCCC3)nc12	Butyrylcholinesterase (BChE) (Equus caballus)	pIC50	4.54
Cc1ccc2nc(N3CCCCC3)c(C=NNC(=S)Nc3ccccc3F)cc2c1	Butyrylcholinesterase (BChE) (Equus caballus)	pIC50	4.60
Cc1ccc2nc(N3CCCCC3)c(C=NNC(=S)Nc3c(C)cccc3C)cc2c1	Butyrylcholinesterase (BChE) (Equus caballus)	pIC50	4.53
Cc1cccc2cc(C=NNC(=S)NCCN3CCOCC3)c(N3CCCCC3)nc12	Butyrylcholinesterase (BChE) (Equus caballus)	pIC50	4.45
Cc1ccc(NC(=S)NN=Cc2cc3cc(C)ccc3nc2N2CCCCC2)c(C)c1	Butyrylcholinesterase (BChE) (Equus caballus)	pIC50	4.43
Cc1ccc(NC(=S)NN=Cc2cc3cccc(C)c3nc2N2CCCCC2)c(C)c1	Butyrylcholinesterase (BChE) (Equus caballus)	pIC50	4.61

Task: Quick check: pIC50 on Butyrylcholinesterase (BChE) (Equus caballus), item `Cc1ccc2nc(N3CCCCC3)c(C=NNC(=S)Nc3ccc(F)cc3)cc2c1` ?
Output: 4.37

* * *

measurement_description: In vitro cytotoxicity, MTT assay
Format: cell-based
assay_setup: human, HepG2 cells; HepG2, 500 μg/mL, 24 h, control = 100; read-out: Cell Viability
endpoint_label: viability at 24 h, 500 μg/mL (%)
Express the result in % but write the number alone.

Would you please look over these solved cases?
compound	reported_result
Cc1cccc2cc(C=NNC(=S)Nc3ccc(F)cc3)c(N3CCCCC3)nc12 [Compound 6j]	108
Cc1ccc2nc(N3CCCCC3)c(C=NNC(=S)Nc3cccc(Cl)c3)cc2c1 [Compound 5f]	93.2
Cc1ccc2nc(N3CCCCC3)c(C=NNC(=S)Nc3ccccc3)cc2c1 [Compound 5b]	169
Cc1cccc2cc(C=NNC(=S)Nc3ccc(Cl)cc3)c(N3CCCCC3)nc12 [Compound 6g]	150
Cc1cccc2cc(C=NNC(=S)Nc3ccccc3F)c(N3CCCCC3)nc12 [Compound 6h]	151

Task: Endpoint output: viability at 24 h, 500 μg/mL of Cc1ccc2nc(N3CCCCC3)c(C=NNC(=S)Nc3c(C)cccc3C)cc2c1 [Compound 5d] . Value?
Output: 134

Task: # get_value(readout='viability at 24 h, 500 μg/mL', item= CCc1ccc(NC(=S)NN=Cc2cc3cc(C)ccc3nc2N2CCCCC2)cc1 [Compound 5k] )
Output: 106

Task: Could you tell me which viability at 24 h, 500 μg/mL is on file for Cc1ccc2nc(N3CCCCC3)c(C=NNC(=S)Nc3ccccc3F)cc2c1 [Compound 5h] ?
Output: 151

Task: Can you share its viability at 24 h, 500 μg/mL? I mean this compound: CCc1ccc(NC(=S)NN=Cc2cc3cccc(C)c3nc2N2CCCCC2)cc1 [Compound 6k]
Output: 138
